log1/Ki listing for selected molecules.
Experiment: Inhibition of carbonic anhydrase (unknown origin)
Details: Homo sapiens

STRUCTURE_AS_SMILES	log1/Ki
NS(=O)(=O)c1ccccc1	0.22
COc1ccc(S(N)(=O)=O)cc1	0.35
NS(=O)(=O)c1ccc(Cl)cc1	0.72
Cc1ccc(S(N)(=O)=O)cc1	0.42
NS(=O)(=O)c1ccc([N+](=O)[O-])c(C(F)(F)F)c1	1.85
NS(=O)(=O)c1ccc(Cl)c(Cl)c1	1.4

* * *

log(1/C50) listing for selected compounds.
Assay: Uncoupling activity of oxidative phosphorylation in rat liver mitochondria
Type: functional

STRUCTURE_AS_SMILES	log(1/C50)
CC(C)c1ccc(C2C(=O)c3ccccc3C2=O)cc1	4.87
O=C1c2ccccc2C(=O)C1c1ccc(Cl)cc1	4.2
COc1ccc(C2C(=O)c3ccccc3C2=O)cc1	3.75
CC(C)(C)c1ccc(C2C(=O)c3ccccc3C2=O)cc1	5.03
Cc1ccc(C2C(=O)c3ccccc3C2=O)cc1	4.1
O=C1c2ccccc2C(=O)C1c1ccccc1	3.74

* * *

Assay: Inhibition of alcohol dehydrogenase (unknown origin) assessed as dissociation constant for the complex of enzyme and DPNH
Assay type: protein assay
Conditions: Homo sapiens
log K vs -2: at or above is criterion met, below is criterion not met.

STRUCTURE_AS_SMILES	CATEGORY_LABEL
NC(=O)c1ccc(Cl)cc1	criterion met
NC(=O)c1ccccc1	criterion not met
Cc1ccc(C(N)=O)cc1	criterion met
CC(C)c1ccc(C(N)=O)cc1	criterion met
COc1ccc(C(N)=O)cc1	criterion not met

* * *

Activity_index listing for selected compounds.
Test system: Rattus norvegicus
Assay: Antiinflammatory activity in rat pleurisy model assessed as 10X ratio of mean pleural exudate volumes at 1 mmol/kg, po relative to 1 mmol/kg aspirin
Assay type: functional

STRUCTURE_AS_SMILES	Activity_index
O=C(O)CCn1nnc(-c2cccc(Br)c2)n1	11.2
COc1ccc(-c2nnn(CCC(=O)O)n2)cc1	4.9
O=C(O)CCn1nnc(-c2cccc(C(F)(F)F)c2)n1	5.7
O=C(O)CCn1nnc(-c2ccc(Cl)cc2)n1	5.9
O=C(O)CCn1nnc(-c2cc(Cl)cc(Cl)c2)n1	11.2
O=C(O)CCn1nnc(-c2ccccc2)n1	8.2
O=C(O)CCn1nnc(-c2cccc(Cl)c2)n1	11.2
O=C(O)CCn1nnc(-c2ccc(Cl)c(Cl)c2)n1	6.2
Nc1cccc(-c2nnn(CCC(=O)O)n2)c1	0.3
Cc1ccc(-c2nnn(CCC(=O)O)n2)cc1	3.1
Cc1cccc(-c2nnn(CCC(=O)O)n2)c1	7.9

* * *

log(1/MIC) listing for selected compounds.
Test system: Escherichia coli
Assay: Antibacterial activity against Escherichia coli
Format: functional

COMPOUND	log(1/MIC)
CCc1ccc(C(=O)NS(=O)(=O)c2ccc(N)cc2)cc1	5.62
Nc1ccc(S(=O)(=O)NC(=O)c2ccccc2)cc1 [SULFABENZAMIDE]	5.25
CC(C)c1ccc(C(=O)NS(=O)(=O)c2ccc(N)cc2)cc1	5.4
Cc1cccc(C(=O)NS(=O)(=O)c2ccc(N)cc2)c1	5.4
CCCc1ccc(C(=O)NS(=O)(=O)c2ccc(N)cc2)cc1	5.18
COc1ccc(C(=O)NS(=O)(=O)c2ccc(N)cc2)cc1C	5.25
Cc1ccc(C(=O)NS(=O)(=O)c2ccc(N)cc2)cc1	5.4
Nc1ccc(S(=O)(=O)NC(=O)c2cccc(C(F)(F)F)c2)cc1	4.65
Nc1ccc(S(=O)(=O)NC(=O)c2ccc([N+](=O)[O-])cc2)cc1	4.5
COc1ccc(C(=O)NS(=O)(=O)c2ccc(N)cc2)cc1	5.4
N#Cc1ccc(C(=O)NS(=O)(=O)c2ccc(N)cc2)cc1	4.05
Nc1ccc(S(=O)(=O)NC(=O)c2ccc(Cl)cc2)cc1	5.1
